tested_system: human activated blood coagulation factor X (Homo sapiens, UniProt P00742)
Construct: purchased Calbiochem Corporation
Sequence (P00742 235-488 limits assumed): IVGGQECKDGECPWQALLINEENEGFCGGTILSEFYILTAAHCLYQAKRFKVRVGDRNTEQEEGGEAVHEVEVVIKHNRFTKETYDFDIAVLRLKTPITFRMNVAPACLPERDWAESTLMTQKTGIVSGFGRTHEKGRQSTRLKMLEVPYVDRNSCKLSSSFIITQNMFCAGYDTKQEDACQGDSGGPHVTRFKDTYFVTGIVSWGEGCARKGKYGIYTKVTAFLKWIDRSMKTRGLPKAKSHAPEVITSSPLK
Sequence (P00742 41-179 partner limits assumed): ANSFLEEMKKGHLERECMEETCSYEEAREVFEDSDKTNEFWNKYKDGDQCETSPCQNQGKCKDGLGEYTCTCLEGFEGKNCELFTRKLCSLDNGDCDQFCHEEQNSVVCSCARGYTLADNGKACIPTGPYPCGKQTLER
test_details: Measurement of inhibitory activity for activated blood coagulation factor X (S-2222 chromogenic substrate)
Type: biochemical
experimental_conditions: IC50; pH 8.4, 10 minutes at 37 °C, absorbance 405 nm; read-out: Inhibitory activity for activated blood coagulation factor X
Counter-ions that a name gives are not always drawn.
endpoint_label: IC50 (nM)
I only need the number, in nM, no unit after it.

Exam item: IC50 of CC(C)c1ccc(CCNS(=O)(=O)c2cc(C(=N)N)ccc2O)cc1 [Compound 2, hydrochloride] on human activated blood coagulation factor X (Homo sapiens, UniProt P00742)?
Marked response: 64
